# test: Cytotoxicity in TZM-bl cells
# Type: cell-based
# test.settings: human
measurement.label: CC50 at 48 h

[ask] Returns the measured CC50 at 48 h for the input compound. Input: `N#Cc1ccc2c(S(=O)(=O)n3nc(Nc4ccc(C#N)c(C#N)c4)nc3N)cccc2c1`
[reply] 28 µM

* * *

# System: primary mouse neurons
# test: Neuronal toxicity by MAP-2 staining in primary mouse neurons
# Type: cell-based
# test.settings: 48 hr, 0.1 to 10,000 nM; ±SD
measurement.label: TC50 (µM) Relative MAP-2 intensity

Nc1nc(Nc2ccc(Cl)cc2)nn1S(=O)(=O)c1ccc2ccccc2c1
23 ± 18 µM

Below are some compounds; for each one, tell me its TC50 (µM) Relative MAP-2 intensity.
1. N#Cc1ccc2c(S(=O)(=O)n3nc(Nc4ccc(C#N)c(C#N)c4)nc3N)cccc2c1
2. N#Cc1ccc(Nc2nc(N)n(S(=O)(=O)c3cccc4cc(C#N)ccc34)n2)cc1
3. N#C/C=C/c1ccc2c(S(=O)(=O)n3nc(Nc4ccc(C#N)c(Cl)c4)nc3N)cccc2c1

[reply]
1. 50 ± 140 µM
2. 1.0 ± 0.5 µM
3. >10 µM
